Tested on: Canis familiaris
test protocol: Bronchodilatory activity in iv dosed mongrel dog assessed as inhibition of histamine-induced bronchospasm administered 1 min prior to histamine challenge relative to l-isoproterenol
Type: functional, Canis lupus familiaris
Kind request: treat 4000 as inclusive, so Ratio ED50 at 4000 or higher is TRUE, anything lower is FALSE.

Query string: Please check the record CC[C@H](NC(C)C)[C@@H](O)c1ccc(O)c2[nH]c(=O)ccc12 and state if its Ratio ED50 is at or above 4000.
Result string: FALSE

Query string: Has CCC(NC(C)C)C(O)c1ccc(O)c2[nH]c(=O)ccc12 (racemic; threo) [PROCATEROL] a recorded Ratio ED50 greater than or equal to 4000?
Result string: FALSE

Query string: Is Ratio ED50 for CCC(NC(C)C)C(O)c1ccc(O)c2[nH]c(=O)ccc12 (racemic; erythro) [PROCATEROL] at or above 4000?
Result string: FALSE

Query string: Entry CC[C@@H](NC(C)C)[C@@H](O)c1ccc(O)c2[nH]c(=O)ccc12 : is its Ratio ED50 no less than 4000?
Result string: TRUE

Query string: hey, is Ratio ED50 for this one >= 4000? CCC(NC(C)C)C(O)c1ccc(O)c2[nH]c(=O)ccc12 (stereo in doubt) [PROCATEROL]
Result string: FALSE
